The following molecules are shown together with reported pEC50 values.
# STUDY_TARGET: ERR1 (also known as ERR-α or ERR-1) (Homo sapiens, UniProt P11474)
# Sequence (P11474 193-421 limits assumed, species assumed): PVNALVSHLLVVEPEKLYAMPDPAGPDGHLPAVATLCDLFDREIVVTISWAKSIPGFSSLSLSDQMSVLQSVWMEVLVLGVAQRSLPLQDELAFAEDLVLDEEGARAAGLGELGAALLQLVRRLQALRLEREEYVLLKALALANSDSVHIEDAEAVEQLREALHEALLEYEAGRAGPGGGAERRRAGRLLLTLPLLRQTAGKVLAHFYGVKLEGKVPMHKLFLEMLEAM
# TEST_NAME: TR-FRET assay (disruption of co-activator peptide binding to ERR1 LBD)
# Type: biochemical
# ASSAY_CONDITIONS: average of 3 independent experiments; read-out: TR-FRET EC50
pEC50: −log10 of the molar value.
MEASURE: pEC50

1. Cc1cc(/C=C2\SC(=O)NC2=O)ccc1Oc1ccc(C(N)=O)cc1C(F)(F)F [Compound 28] :: 6.36
2. Cc1cc(/C=C2\SC(=O)NC2=O)ccc1Oc1ccc(C#N)cc1C(F)(F)F [Compound 14] :: 6.70
3. COc1cc(/C=C2\SC(=O)NC2=O)ccc1Oc1ccc(Br)cc1C(F)(F)F [Compound 5] :: 6.24
4. COc1cc(/C=C2\SC(=O)NC2=O)ccc1Oc1ccc(S(C)(=O)=O)cc1Br [Compound 3] :: 5.99

====

# STUDY_TARGET: ERR1 (also known as ERR-α or ERR-1) (Homo sapiens, UniProt P11474)
# TEST_NAME: TR-FRET assay (disruption of co-activator peptide binding to ERR1 LBD)
# Type: biochemical
# ASSAY_CONDITIONS: average of 3 independent experiments; read-out: TR-FRET EC50
pEC50: −log10 of the molar value.
MEASURE: pEC50

1) N#Cc1ccc(Oc2ccc(/C=C3\SC(=O)NC3=O)cc2F)c(C(F)(F)F)c1 :: 6.82
2) CCOc1cc(/C=C2\SC(=O)NC2=O)ccc1Oc1ccc(C#N)cc1C(F)(F)F :: 6.74
3) N#Cc1ccc(Oc2ccc(/C=C3\SC(=O)NC3=O)cc2C(F)(F)F)c(C(F)(F)F)c1 :: 6.00
4) CCOc1cc(/C=C2\SC(=O)NC2=O)ccc1Oc1ccc(C#N)c2ccccc12 :: 7.43
5) N#Cc1ccc(Oc2ccc(/C=C3\SC(=O)NC3=O)cc2OC(F)(F)F)c(C(F)(F)F)c1 :: 6.74
6) COc1cc(/C=C2\SC(=O)NC2=O)ccc1Oc1ccc(Cl)cc1C(F)(F)F :: 8.10
7) N#Cc1ccc(Oc2ccc(/C=C3\SC(=O)NC3=O)cc2F)c2ccccc12 :: 7.00

====

# STUDY_TARGET: ERR1 (also known as ERR-α or ERR-1) (Homo sapiens)
# TEST_NAME: TR-FRET assay (disruption of co-activator peptide binding to ERR1 LBD)
# Assay type: biochemical
pEC50: −log10 of the molar value.
MEASURE: pEC50

1) COc1cc(/C=C2\SC(=O)NC2=O)ccc1Oc1ccc(C#N)cc1Br :: 6.32
2) COC(=O)c1cc(C(F)(F)F)ccc1Oc1ccc(/C=C2\SC(=O)NC2=O)cc1OC :: 6.32
3) COC(=O)c1ccc(Oc2ccc(/C=C3\SC(=O)NC3=O)cc2OC)c2ccccc12 :: 9.00
4) COc1cc(/C=C2\SC(=O)NC2=O)ccc1Oc1ccc(C(F)(F)F)cc1C#N :: 6.26
5) COc1cc(/C=C2\SC(=O)NC2=O)ccc1Oc1ccc(C#N)c2ccccc12 :: 6.92
6) COc1cc(/C=C2\SC(=O)NC2=O)ccc1Oc1ccc(C(F)(F)F)cc1Cl :: 6.89
